TARGET OR SYSTEM: T1, Cysteine-rich intestinal protein 1 (CRIP1), purified protein coated on plates for the peptide binding assays (human, UniProt P50238 1-77)
T1 construct: Cysteine-rich intestinal protein 1 (CRIP1), human; coding region of the cDNA, 77 amino acids; also called CRIP1 protein; source: bacteria (pHAT10-CRIP1, IPTG induced), purified (TALON CellThru resin)
T1 sequence (looked up): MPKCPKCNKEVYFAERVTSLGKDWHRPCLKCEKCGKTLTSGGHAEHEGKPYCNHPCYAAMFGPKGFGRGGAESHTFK
MEASUREMENT PROTOCOL: competitive binding on protein-coated plates (fluorescence read-out); CRIP1 coated on 96-well plates (100 µg/ml in PBS, overnight 4°C); 10 µM FITC-A1M held constant, unlabeled A1 or A1M 0 to 300 µM, 1 h at 37°C; one binding site model
CONDITION: both partners purified
Bridges are numbered along the chain shown (N, C = ends). Where no end group is shown, it is not given here.
RECORDED METRIC: Ki (nM)

[[record]]
binder = "CLDGGGKGCGGGSK (disulfide 1-9 (inferred), source: synthetic peptide) [unlabeled A1M peptide]"
quantitative_readout = 67

